These measurements were taken from patent US20080227711A1.

testedSystem: T1, murine CXCL1/KC (murine, UniProt P12850 25-96)
T1 sequence: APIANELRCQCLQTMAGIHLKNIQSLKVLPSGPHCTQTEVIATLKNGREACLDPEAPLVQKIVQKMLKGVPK
procedureText: SPR (Biacore 3000), Evasin-3-6His immobilized on CM4 chip, Kd=kd/ka
endpointLabel: Kd (nM)

>>> observedmeasurement("recombinant Evasin-3-6His purified from HEK293 cells (other, glycosylation on the S and T residues of the N-terminal sequence LVSTIESRTS (80% of the mature protein); heterogeneous post-translational modification, smear of 20-30 Kd, also called Evasin-3-HIS; mature Evasin-3-HIS) LVSTIESRTSGDGADNFDVVSCNKNCTSGQNECPEGCFCGLLGQNKKGHCYKIIGNLSGEPPVVRRHHHHHH")
5.34
